- Tested on: SK-MEL-5
- Experimental Details: NCI tumour cell line growth inhibition, 48 h
The source made the active and inactive calls. Rule as the data show it: active = GI50 up to about 1.1 µM and inactive = higher.
Outcomes: YES (active), NO (inactive)

Compound	Label Value
CCCSS[C@H]1NC(=O)[C@H]1NC(=O)COc1ccccc1	NO
CC1(C)CN(CC(=O)O)CC(Cc2ccc(OCC(=O)O)cc2)N(CC(=O)O)CC(C)(C)SS1 (stereo not drawn)	NO
CN(C)CCNC1=Nc2ccccc2C(=O)N2CSCC12 (stereo not drawn)	NO
O=C(CSC1=NC(=O)C2(NN1)c1ccccc1-c1ccccc12)NC(=S)Nc1ccccc1	NO
CC[C@H](C)[C@H]1NC(=O)[C@@H](NC(=O)[C@@H](CC(C)C)N(C)C(=O)C2CCCN2C(=O)[C@H](C)O)[C@@H](C)OC(=O)[C@@H]2Cc3ccccc3CN2C(=O)[C@@H]2CCCN2C(=O)[C@H](CC(C)C)NC(=O)[C@@H](C)C(=O)[C@H](C(C)C)OC(=O)C[C@@H]1O (stereo partly drawn)	YES
O=[As](O)(O)c1ccc(/N=N/c2ccc([As](=O)(O)O)cc2)cc1	NO
N=C1N(S(=O)(=O)c2ccccc2)[C@@H](Cc2ccccc2)[C@H](c2ccccc2)C1(c1ccccc1)c1ccccc1	NO
CC(C)(C)OC(=O)N/N=C(/N)Cc1ccc(Cl)cc1	NO
COc1ccc2c(c1)[n+]([O-])c(-c1ccc(OC)c(OC)c1)c(N)[n+]2[O-]	NO
Cc1ccccc1-n1c(=O)sc2c(=O)n(-c3ccccc3)c(=S)[nH]c21	NO
Nc1nc2ccc3ccccc3c2[nH]1	NO
O=S(=O)(O)c1cc(/N=N/c2cc(S(=O)(=O)O)c3ccccc3c2O)ccc1/C=C/c1ccc(/N=N/c2cc(S(=O)(=O)O)c3ccccc3c2O)cc1S(=O)(=O)O	NO
COC(=O)/C=C(/C(=O)OC)c1c(C)cc2c(C)cc(C)cc(C)c1-2	NO
COc1ccc(N2C(=O)/C(=C\c3cccc(Oc4ccccc4)c3)S(=O)(=O)C2c2ccccc2)cc1 (stereo not drawn)	NO
CCN(CC)C(=O)c1cccc2c(OC)ccc(OC)c12	NO
Cc1ccc(-c2nc3cc(F)c(N4CCN(C)CC4)cc3[nH]2)cc1	NO
CC1=C(C(=O)Nc2ccccc2C)C(c2ccccc2O)C(C(=O)Nc2ccccc2C)=C(C)N1	NO
Cc1cc2c(cc1C)NC1=C(O)C(c3c[nH]c4ccc(COc5ccccc5)cc34)OC1=N2 (stereo not drawn)	NO

###

- System: OVCAR-3
- Experimental Details: NCI tumour cell line growth inhibition, 48 h
Active and inactive are the calls of the source. Rule as the data show it: active = GI50 up to about 1.1 µM and inactive = higher.
Property: GI50; scope: individual compounds
Recorded Endpoint: GI50

                                   compound          measurement
0  O=c1oc2ccc([N+](=O)[O-])cc2c(Nc2ccc3c(c2)Oc2ccccc2O3)c1[N+](=O)[O-]   47.3 µM (inactive)
1  CCOC(=O)N1c2ccccc2N(C(=O)OCC)C1CC(=O)/C=C/c1ccccc1   3.13 µM (inactive)
2  Nc1nc(Cl)cc(NCC2(CO)CCC(Cc3ccccc3)C2)n1 (configuration not stated)   43.1 µM (inactive)
3  c1ccc2c(c1)CC1c3[nH]c4ccccc4c3CCN21 (configuration not stated)   > 10 µM (inactive)
4     Cc1nnc2n1-c1ccccc1-c1[nH]c3ccccc3c1C2   76.6 µM (inactive)
5           CCc1n[nH]c(=O)n1/N=C/c1ccccc1Cl  > 100 µM (inactive)
6  COc1ccc2cc(CNCCCN3CCN(CCCNCc4ccc5cc(OC)ccc5c4)CC3)ccc2c1   1.63 µM (inactive)
